src = the supplement of paper PMC4466140

- Target Of Assay: ScNbp2
- Test Description: SPOT peptide array binding signal intensity (averaged, normalized) (arbitrary units (background-subtracted, floor 0; scale differs between SH3 domains)); higher = stronger binding of the SH3 domain to the peptide
Label class 1 when SPOT peptide array binding signal intensity >= 1000; otherwise class 0.

EEEEEHPPLPARRKS | class 0
PHNPSPFFPPPDFND | class 0

Asked: Form field: SPOT peptide array binding signal intensity at least 1000? Entry: `RKNRAPPQRPRFNRD`
Given back: class 1

Asked: Could you tell me if the measured SPOT peptide array binding signal intensity of `KNRKNLPTIPIRLSG` reaches 1000 or more?
Given back: class 1

Asked: Please tell me: is the binder `VYTRTAFQIPGDDKI` at or over 1000 in terms of SPOT peptide array binding signal intensity?
Given back: class 0

Asked: Quick check: does `SSAAPPPPPRRATPE` have SPOT peptide array binding signal intensity greater than or equal to 1000?
Given back: class 0

Asked: For this binder, is measured SPOT peptide array binding signal intensity 1000 or higher? `FYHRPAPKPPVTKKV`
Given back: class 1
